Sourced from ChEMBL document CHEMBL1122562

- Tested on: P388
- methodNotes: Compound was tested in vitro for its inhibitory activity against murine P-388 leukemia
- Format: functional
- experimentalSetup: Mus musculus, read-out: ID50 (the source's name)
Attribute: pIC50
pIC50 (log units): -log10 of the concentration in mol/L.

# compound, pIC50
records = [
    ("Cc1c(O)c(=O)ccn1C1O[C@H](CO)[C@@H](O)[C@H]1O (some centres undefined)", 4.22),
]

Enter reported pIC50 observed with P388 for Cc1nccc(O)c1O
3.96

Value wanted: pIC50 (P388) of entry O=c1c(O)cccn1[C@@H]1O[C@H](CO)[C@@H](O)[C@H]1O
3.35

Given the entry Oc1cccnc1O , what pIC50 was observed with P388?
3.52
